tested on: Bacillus thuringiensis; experiment: Antibacterial activity against Bacillus thuringiensis after 24 hr by agar dilution assay; type: functional
quantity measured: MIC

Enquiry: Please give the measured MIC for this compound: Cc1cccc2cc(/C=N/NC(=O)C3=C(O)c4ccccc4S(=O)(=O)N3C)c(Cl)nc12
Return: > 1000 µg/mL

Enquiry: Given CC1(C)S[C@@H]2[C@H](NC(=O)[C@H](N)c3ccc(O)cc3)C(=O)N2[C@H]1C(=O)O [AMOXICILLIN] , state its recorded MIC.
Return: 6 µg/mL

Enquiry: May I ask what MIC has been recorded for Cc1ccc2cc(/C=N/NC(=O)C3=C(O)c4ccccc4S(=O)(=O)N3)c(Cl)nc2c1 ?
Return: > 1000 µg/mL

Now, please, on to the next compound.
Enquiry: Look at this compound and give its reported MIC. CN[C@@H]1[C@H](O[C@H]2[C@H](O[C@H]3[C@H](O)[C@@H](O)[C@H](N=C(N)N)[C@@H](O)[C@@H]3N=C(N)N)O[C@@H](C)[C@]2(O)C=O)O[C@@H](CO)[C@H](O)[C@H]1O [STREPTOMYCIN]
Return: 3 µg/mL

###

tested on: Escherichia coli; assay: Antibacterial activity against Escherichia coli after 24 hr by agar dilution assay; type: functional
MIC values, listed per item

# example entries with known answers
Enquiry: Which MIC is reported for this molecule? Cc1ccc2nc(Cl)c(/C=N/NC(=O)C3=C(O)c4ccccc4S(=O)(=O)N3C)cc2c1
Return: > 1000 µg/mL

Enquiry: Bench note: what MIC did CC1(C)S[C@@H]2[C@H](NC(=O)[C@H](N)c3ccc(O)cc3)C(=O)N2[C@H]1C(=O)O [AMOXICILLIN] show?
Return: 2 µg/mL

Enquiry: Returns the measured MIC for the input molecule. Input: Cc1ccc2cc(/C=N/NC(=O)C3=C(O)c4ccccc4S(=O)(=O)N3)c(Cl)nc2c1
Return: > 1000 µg/mL

Continuing:
Enquiry: So what's the measured MIC for this one? Cc1ccc2cc(/C=N/NC(=O)C3=C(O)c4ccccc4S(=O)(=O)N3C)c(Cl)nc2c1
Return: > 1000 µg/mL

###

system: Escherichia coli; assay: Antibacterial activity against Escherichia coli after 24 hr by agar dilution assay; type: functional
quantity measured: MIC

// worked examples, MIC included
Enquiry: Quick one: MIC of COc1ccc2nc(Cl)c(/C=N/NC(=O)C3=C(O)c4ccccc4S(=O)(=O)N3C)cc2c1 ?
Return: > 1000 µg/mL

Enquiry: Record request: MIC value, item Cc1ccc2nc(Cl)c(/C=N/NC(=O)C3=C(O)c4ccccc4S(=O)(=O)N3)cc2c1
Return: > 1000 µg/mL

Let us examine a further case.
Enquiry: Please report the recorded MIC for COc1ccc2cc(/C=N/NC(=O)C3=C(O)c4ccccc4S(=O)(=O)N3)c(Cl)nc2c1 .
Return: > 1000 µg/mL

###

test system: Bacillus thuringiensis; assay: Antibacterial activity against Bacillus thuringiensis after 24 hr by agar dilution assay; format: functional
Some molecules, each annotated with its measured MIC.

Below, each entry is followed by its recorded MIC result.
Enquiry: GET /values?readout=MIC&item= COc1ccc2nc(Cl)c(/C=N/NC(=O)C3=C(O)c4ccccc4S(=O)(=O)N3)cc2c1
Return: > 100 µg/mL

Enquiry: Requested read-out: MIC. Entry: Cc1ccc2cc(/C=N/NC(=O)C3=C(O)c4ccccc4S(=O)(=O)N3C)c(Cl)nc2c1
Return: > 100 µg/mL

Enquiry: Which MIC value belongs to COc1ccc2cc(/C=N/NC(=O)C3=C(O)c4ccccc4S(=O)(=O)N3)c(Cl)nc2c1 ?
Return: > 100 µg/mL

Enquiry: Tell me the measured MIC of COc1ccc2cc(/C=N/NC(=O)C3=C(O)c4ccccc4S(=O)(=O)N3C)c(Cl)nc2c1 , please.
Return: > 100 µg/mL

Continue with the next molecule.
Enquiry: Which MIC is reported for this molecule? Cc1ccc2nc(Cl)c(/C=N/NC(=O)C3=C(O)c4ccccc4S(=O)(=O)N3C)cc2c1
Return: > 1000 µg/mL

###

system: Escherichia coli; test: Antibacterial activity against Escherichia coli after 24 hr by agar dilution assay; assay type: functional
Each record here notes measured MIC.

Below: 4 compounds and their reported MIC.
Enquiry: Request - read-out MIC | tested on Escherichia coli | compound CN[C@@H]1[C@H](O[C@H]2[C@H](O[C@H]3[C@H](O)[C@@H](O)[C@H](N=C(N)N)[C@@H](O)[C@@H]3N=C(N)N)O[C@@H](C)[C@]2(O)C=O)O[C@@H](CO)[C@H](O)[C@H]1O
Return: 0.7 µg/mL

Enquiry: API: value(readout=MIC, system=Escherichia coli) for record COc1ccc2nc(Cl)c(/C=N/NC(=O)C3=C(O)c4ccccc4S(=O)(=O)N3)cc2c1
Return: > 1000 µg/mL

Enquiry: Identify the measured MIC of COc1ccc2cc(/C=N/NC(=O)C3=C(O)c4ccccc4S(=O)(=O)N3C)c(Cl)nc2c1 for Escherichia coli.
Return: > 1000 µg/mL

Enquiry: Hi! What's the reported MIC for Cc1cccc2cc(/C=N/NC(=O)C3=C(O)c4ccccc4S(=O)(=O)N3C)c(Cl)nc12 on Escherichia coli?
Return: > 1000 µg/mL

Next, consider the following compound.
Enquiry: What measured MIC is associated with Cc1cccc2cc(/C=N/NC(=O)C3=C(O)c4ccccc4S(=O)(=O)N3)c(Cl)nc12 on Escherichia coli?
Return: > 1000 µg/mL

###

assay: Antioxidant activity assessed as superoxide radical scavenging activity by NBT reduction assay relative to control; assay type: functional; design: concentration or dose not given beside the values
quantity measured: Activity (%)
Answer in %, number only, no unit symbol.

Enquiry: I would be grateful if you could share the reported Activity for Cc1cccc2cc(/C=N/NC(=O)C3=C(O)c4ccccc4S(=O)(=O)N3)c(Cl)nc12 .
Return: 52.5

Enquiry: Could you share which Activity value was measured for COc1ccc2cc(/C=N/NC(=O)C3=C(O)c4ccccc4S(=O)(=O)N3C)c(Cl)nc2c1 ?
Return: 65.1

Enquiry: Tell me the measured Activity of Cc1cccc2cc(/C=N/NC(=O)C3=C(O)c4ccccc4S(=O)(=O)N3C)c(Cl)nc12 , please.
Return: 61.3

Enquiry: // lookup Activity for COc1ccc2cc(/C=N/NC(=O)C3=C(O)c4ccccc4S(=O)(=O)N3)c(Cl)nc2c1
Return: 72.1

Enquiry: # lookup: Activity of Cc1ccc2cc(/C=N/NC(=O)C3=C(O)c4ccccc4S(=O)(=O)N3)c(Cl)nc2c1
Return: 49.1

Enquiry: What Activity value was documented for this compound, Cc1ccc2nc(Cl)c(/C=N/NC(=O)C3=C(O)c4ccccc4S(=O)(=O)N3C)cc2c1 ?
Return: 51.2

Enquiry: Consider the compound shown here: COc1ccc2nc(Cl)c(/C=N/NC(=O)C3=C(O)c4ccccc4S(=O)(=O)N3)cc2c1 What is its recorded Activity?
Return: 69.7

Enquiry: Which measured Activity value corresponds to CCCOC(=O)c1cc(O)c(O)c(O)c1 ?
Return: 91.3

Enquiry: Data request, read-out Activity, for Cc1ccc2cc(/C=N/NC(=O)C3=C(O)c4ccccc4S(=O)(=O)N3C)c(Cl)nc2c1
Return: 51.9

Enquiry: Quick check: Activity of COc1ccc2nc(Cl)c(/C=N/NC(=O)C3=C(O)c4ccccc4S(=O)(=O)N3C)cc2c1 ?
Return: 67.2

Enquiry: Look up Activity: Cc1ccc2nc(Cl)c(/C=N/NC(=O)C3=C(O)c4ccccc4S(=O)(=O)N3)cc2c1
Return: 51.8

###

system: Bacillus thuringiensis; assay: Antibacterial activity against Bacillus thuringiensis after 24 hr by agar dilution assay; assay type: functional
quantity measured: MIC

Enquiry: // lookup MIC for Cc1cccc2cc(/C=N/NC(=O)C3=C(O)c4ccccc4S(=O)(=O)N3)c(Cl)nc12
Return: > 1000 µg/mL

Enquiry: # MIC lookup, item Cc1ccc2nc(Cl)c(/C=N/NC(=O)C3=C(O)c4ccccc4S(=O)(=O)N3)cc2c1
Return: > 100 µg/mL

Please examine the following record next.
Enquiry: May I ask what MIC has been recorded for COc1ccc2nc(Cl)c(/C=N/NC(=O)C3=C(O)c4ccccc4S(=O)(=O)N3C)cc2c1 ?
Return: > 200 µg/mL

Recorded values, source ChEMBL document CHEMBL3045019.
